Target: Mu-type opioid receptor (Cavia porcellus) (UniProt P97266)
Sequence (P97266 whole entry): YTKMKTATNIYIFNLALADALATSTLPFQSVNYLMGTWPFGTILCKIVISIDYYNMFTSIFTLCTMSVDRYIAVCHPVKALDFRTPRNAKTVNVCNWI
Test: Maximal inhibition of muscle contraction in guinea pig ileum at 10000 nM
Assay type: functional, tissue-based
Set-up: scale not given: the % may be the effect or the level left
Readout Type: Activity

[[record]]
molecule = "Cc1cc(O)cc(C)c1C[C@@H](C(=O)N1Cc2ccccc2CC1C(=O)NCCCc1nc(O)c(CCCNC(=O)C2Cc3ccccc3CN2C(=O)[C@H](Cc2c(C)cc(O)cc2C)N(C)C)nc1C)N(C)C (stereo not given in full)"
measurement_target = "Mu-type opioid receptor (Cavia porcellus) (UniProt P97266)"
reported = "< 1%"

[[record]]
molecule = "Cc1cc(O)cc(C)c1C[C@@H](C(=O)N1Cc2ccccc2CC1C(=O)NCCCCCCNC(=O)C1Cc2ccccc2CN1C(=O)[C@H](Cc1c(C)cc(O)cc1C)N(C)C)N(C)C (stereo not given in full)"
measurement_target = "Mu-type opioid receptor (Cavia porcellus) (UniProt P97266)"
reported = "< 1%"

[[record]]
molecule = "Cc1cc(O)cc(C)c1C[C@H](N)C(=O)N1Cc2ccccc2CC1C(=O)NCCCCc1nc(O)c(CCNC(=O)C2Cc3ccccc3CN2C(=O)[C@@H](N)Cc2c(C)cc(O)cc2C)nc1C (stereo not given in full)"
measurement_target = "Mu-type opioid receptor (Cavia porcellus) (UniProt P97266)"
reported = "< 44%"

[[record]]
molecule = "Cc1cc(O)cc(C)c1C[C@H](N)C(=O)N1Cc2ccccc2CC1C(=O)NCCCCc1nc(O)c(CCCCNC(=O)C2Cc3ccccc3CN2C(=O)[C@@H](N)Cc2c(C)cc(O)cc2C)nc1C (stereo not given in full)"
measurement_target = "Mu-type opioid receptor (Cavia porcellus) (UniProt P97266)"
reported = "< 34%"

[[record]]
molecule = "Cc1cc(O)cc(C)c1C[C@H](N)C(=O)N1Cc2ccccc2CC1C(=O)NCCCCc1nc(C)c(CCCNC(=O)C2Cc3ccccc3CN2C(=O)[C@@H](N)Cc2c(C)cc(O)cc2C)nc1O (stereo not given in full)"
measurement_target = "Mu-type opioid receptor (Cavia porcellus) (UniProt P97266)"
reported = "< 9%"


* * *

List of IC50 values.
Target: Delta-type opioid receptor (Mus musculus, UniProt P32300)
Assay: Agonistic activity at delta opioid receptor in mouse vas deferens
Readout Type: IC50

[[record]]
molecule = "Cc1cc(O)cc(C)c1C[C@H](N)C(=O)N1Cc2ccccc2CC1C(=O)NCCCCc1nc(O)c(CCNC(=O)C2Cc3ccccc3CN2C(=O)[C@@H](N)Cc2c(C)cc(O)cc2C)nc1C (stereo partly drawn)"
reported = "> 10 µM"

[[record]]
molecule = "Cc1cc(O)cc(C)c1C[C@H](N)C(=O)N1Cc2ccccc2CC1C(=O)NCCCCc1nc(O)c(CCCCNC(=O)C2Cc3ccccc3CN2C(=O)[C@@H](N)Cc2c(C)cc(O)cc2C)nc1C (stereo partly drawn)"
reported = "> 10 µM"

[[record]]
molecule = "Cc1cc(O)cc(C)c1C[C@H](N)C(=O)N1Cc2ccccc2CC1C(=O)NCCc1nc(O)c(CCNC(=O)C2Cc3ccccc3CN2C(=O)[C@@H](N)Cc2c(C)cc(O)cc2C)nc1C (stereo partly drawn)"
reported = "> 10 µM"


* * *

List of IC50 values.
Molecular target: Delta-type opioid receptor (Mus musculus, UniProt P32300)
Assay: Agonistic activity at delta opioid receptor in mouse vas deferens
Readout Type: IC50

[[record]]
compound = "Cc1cc(O)cc(C)c1C[C@H](N)C(=O)N1Cc2ccccc2CC1C(=O)NCCCCCCNC(=O)C1Cc2ccccc2CN1C(=O)[C@@H](N)Cc1c(C)cc(O)cc1C (stereo partly drawn)"
measurement_target = "Delta-type opioid receptor (Mus musculus, UniProt P32300)"
reported = "> 10 µM"

[[record]]
compound = "Cc1cc(O)cc(C)c1C[C@@H](C(=O)N1Cc2ccccc2CC1C(=O)NCCCCCCNC(=O)C1Cc2ccccc2CN1C(=O)[C@H](Cc1c(C)cc(O)cc1C)N(C)C)N(C)C (stereo partly drawn)"
measurement_target = "Delta-type opioid receptor (Mus musculus, UniProt P32300)"
reported = "> 10 µM"

[[record]]
compound = "Cc1cc(O)cc(C)c1C[C@H](N)C(=O)N1Cc2ccccc2CC1C(=O)NCCCCc1[nH]c(=O)c(CCCNC(=O)C2Cc3ccccc3CN2C(=O)[C@@H](N)Cc2c(C)cc(O)cc2C)nc1C (stereo partly drawn)"
measurement_target = "Delta-type opioid receptor (Mus musculus, UniProt P32300)"
reported = "> 10 µM"


* * *

List of IC50 values.
Target: Mu-type opioid receptor (Cavia porcellus, UniProt P97266)
Sequence (P97266 whole entry): as above
Test: Agonistic activity at mu opioid receptor in myenteric plexus longitudinal muscle of guinea pig ileum
Readout Type: IC50

[[record]]
molecule = "Cc1cc(O)cc(C)c1C[C@H](N)C(=O)N1Cc2ccccc2CC1C(=O)NCCCc1nc(O)c(CCCNC(=O)C2Cc3ccccc3CN2C(=O)[C@@H](N)Cc2c(C)cc(O)cc2C)nc1C (stereo not given in full)"
reported = "7.02 µM"

[[record]]
molecule = "Cc1cc(O)cc(C)c1C[C@H](N)C(=O)N1Cc2ccccc2CC1C(=O)NCCCCc1nc(O)c(CCNC(=O)C2Cc3ccccc3CN2C(=O)[C@@H](N)Cc2c(C)cc(O)cc2C)nc1C (stereo not given in full)"
reported = "> 10 µM"

[[record]]
molecule = "Cc1cc(O)cc(C)c1C[C@H](N)C(=O)N1Cc2ccccc2CC1C(=O)NCCCCc1nc(O)c(CCCCNC(=O)C2Cc3ccccc3CN2C(=O)[C@@H](N)Cc2c(C)cc(O)cc2C)nc1C (stereo not given in full)"
reported = "> 10 µM"

[[record]]
molecule = "Cc1cc(O)cc(C)c1C[C@H](N)C(=O)N1Cc2ccccc2CC1C(=O)NCCCCNC(=O)C1Cc2ccccc2CN1C(=O)[C@@H](N)Cc1c(C)cc(O)cc1C (stereo not given in full)"
reported = "> 10 µM"

[[record]]
molecule = "Cc1cc(O)cc(C)c1C[C@@H](C(=O)N1Cc2ccccc2CC1C(=O)NCCCCCCNC(=O)C1Cc2ccccc2CN1C(=O)[C@H](Cc1c(C)cc(O)cc1C)N(C)C)N(C)C (stereo not given in full)"
reported = "> 10 µM"


* * *

Target: Mu-type opioid receptor (Cavia porcellus)
Experiment: Agonistic activity at mu opioid receptor in myenteric plexus longitudinal muscle of guinea pig ileum
pIC50: −log10 of the molar value.
List of pIC50 values.
Readout Type: pIC50

[[record]]
compound = "Cc1cc(O)cc(C)c1C[C@@H](C(=O)N1Cc2ccccc2CC1C(=O)NCCCc1nc(O)c(CCCNC(=O)C2Cc3ccccc3CN2C(=O)[C@H](Cc2c(C)cc(O)cc2C)N(C)C)nc1C)N(C)C (stereo partly specified)"
readout_type = "pIC50"
reported = "< 5.00"

[[record]]
compound = "Cc1cc(O)cc(C)c1C[C@H](N)C(=O)N1Cc2ccccc2CC1C(=O)NCc1nc(O)c(CNC(=O)C2Cc3ccccc3CN2C(=O)[C@@H](N)Cc2c(C)cc(O)cc2C)nc1C (stereo partly specified)"
readout_type = "pIC50"
reported = "< 5.00"

[[record]]
compound = "Cc1cc(O)cc(C)c1C[C@H](N)C(=O)N1Cc2ccccc2CC1C(=O)NCCc1nc(O)c(CCNC(=O)C2Cc3ccccc3CN2C(=O)[C@@H](N)Cc2c(C)cc(O)cc2C)nc1C (stereo partly specified)"
readout_type = "pIC50"
reported = "< 5.00"

[[record]]
compound = "Cc1cc(O)cc(C)c1C[C@H](N)C(=O)N1Cc2ccccc2CC1C(=O)NCCCCCCCCCCNC(=O)C1Cc2ccccc2CN1C(=O)[C@@H](N)Cc1c(C)cc(O)cc1C (stereo partly specified)"
readout_type = "pIC50"
reported = 5.27

[[record]]
compound = "Cc1cc(O)cc(C)c1C[C@H](N)C(=O)N1Cc2ccccc2CC1C(=O)NCCCCc1[nH]c(=O)c(CCCNC(=O)C2Cc3ccccc3CN2C(=O)[C@@H](N)Cc2c(C)cc(O)cc2C)nc1C (stereo partly specified)"
readout_type = "pIC50"
reported = "< 5.00"

[[record]]
compound = "Cc1cc(O)cc(C)c1C[C@H](N)C(=O)N1Cc2ccccc2CC1C(=O)NCCCCc1nc(C)c(CCCNC(=O)C2Cc3ccccc3CN2C(=O)[C@@H](N)Cc2c(C)cc(O)cc2C)nc1O (stereo partly specified)"
readout_type = "pIC50"
reported = "< 5.00"


* * *

Target: Delta-type opioid receptor (Rattus norvegicus, UniProt P33533)
Sequence (P33533 whole entry): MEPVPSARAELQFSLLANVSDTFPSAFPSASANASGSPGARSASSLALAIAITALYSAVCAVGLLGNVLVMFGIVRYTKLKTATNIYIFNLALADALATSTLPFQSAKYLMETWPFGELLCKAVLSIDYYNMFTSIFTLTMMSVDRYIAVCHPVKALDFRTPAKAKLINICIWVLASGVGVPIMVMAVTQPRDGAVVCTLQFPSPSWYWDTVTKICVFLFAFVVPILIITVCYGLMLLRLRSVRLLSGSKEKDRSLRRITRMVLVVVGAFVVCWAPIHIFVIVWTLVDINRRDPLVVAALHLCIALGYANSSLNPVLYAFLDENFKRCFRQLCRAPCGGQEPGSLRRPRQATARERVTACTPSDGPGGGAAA
Experiment: Displacement of [3H]deltorphin-II from delta opioid receptor in rat brain synaptosomal membranes
Just a reminder that ties go to Not met: only Ki strictly below 0.1 nM counts as Met.

[[record]]
molecule = "Cc1cc(O)cc(C)c1C[C@H](N)C(=O)N1Cc2ccccc2CC1C(=O)NCCCCc1nc(O)c(CCCCNC(=O)C2Cc3ccccc3CN2C(=O)[C@@H](N)Cc2c(C)cc(O)cc2C)nc1C (some centres not stated)"
assigned_category = "Not met"

[[record]]
molecule = "Cc1cc(O)cc(C)c1C[C@H](N)C(=O)N1Cc2ccccc2CC1C(=O)NCc1nc(O)c(CNC(=O)C2Cc3ccccc3CN2C(=O)[C@@H](N)Cc2c(C)cc(O)cc2C)nc1C (some centres not stated)"
assigned_category = "Not met"

[[record]]
molecule = "Cc1cc(O)cc(C)c1C[C@H](N)C(=O)N1Cc2ccccc2CC1C(=O)NCCCCc1nc(O)c(CCNC(=O)C2Cc3ccccc3CN2C(=O)[C@@H](N)Cc2c(C)cc(O)cc2C)nc1C (some centres not stated)"
assigned_category = "Not met"

[[record]]
molecule = "Cc1cc(O)cc(C)c1C[C@@H](C(=O)N1Cc2ccccc2CC1C(=O)NCCCCCCNC(=O)C1Cc2ccccc2CN1C(=O)[C@H](Cc1c(C)cc(O)cc1C)N(C)C)N(C)C (some centres not stated)"
assigned_category = "Met"

[[record]]
molecule = "Cc1cc(O)cc(C)c1C[C@@H](C(=O)N1Cc2ccccc2CC1C(=O)NCCCc1nc(O)c(CCCNC(=O)C2Cc3ccccc3CN2C(=O)[C@H](Cc2c(C)cc(O)cc2C)N(C)C)nc1C)N(C)C (some centres not stated)"
assigned_category = "Not met"

[[record]]
molecule = "Cc1cc(O)cc(C)c1C[C@H](N)C(=O)N1Cc2ccccc2CC1C(=O)NCCCCc1[nH]c(=O)c(CCCNC(=O)C2Cc3ccccc3CN2C(=O)[C@@H](N)Cc2c(C)cc(O)cc2C)nc1C (some centres not stated)"
assigned_category = "Not met"

[[record]]
molecule = "Cc1cc(O)cc(C)c1C[C@H](N)C(=O)N1Cc2ccccc2CC1C(=O)NCCCCCCNC(=O)C1Cc2ccccc2CN1C(=O)[C@@H](N)Cc1c(C)cc(O)cc1C (some centres not stated)"
assigned_category = "Not met"

[[record]]
molecule = "Cc1cc(O)cc(C)c1C[C@H](N)C(=O)N1Cc2ccccc2CC1C(=O)NCCCCNC(=O)C1Cc2ccccc2CN1C(=O)[C@@H](N)Cc1c(C)cc(O)cc1C (some centres not stated)"
assigned_category = "Not met"

[[record]]
molecule = "Cc1cc(O)cc(C)c1C[C@H](N)C(=O)N1Cc2ccccc2CC1C(=O)NCCc1nc(O)c(CCNC(=O)C2Cc3ccccc3CN2C(=O)[C@@H](N)Cc2c(C)cc(O)cc2C)nc1C (some centres not stated)"
assigned_category = "Met"

[[record]]
molecule = "Cc1cc(O)cc(C)c1C[C@H](N)C(=O)N1Cc2ccccc2CC1C(=O)NCCCCCCCCCCNC(=O)C1Cc2ccccc2CN1C(=O)[C@@H](N)Cc1c(C)cc(O)cc1C (some centres not stated)"
assigned_category = "Not met"

[[record]]
molecule = "Cc1cc(O)cc(C)c1C[C@H](N)C(=O)N1Cc2ccccc2CC1C(=O)NCCCCc1nc(C)c(CCCNC(=O)C2Cc3ccccc3CN2C(=O)[C@@H](N)Cc2c(C)cc(O)cc2C)nc1O (some centres not stated)"
assigned_category = "Met"

[[record]]
molecule = "Cc1cc(O)cc(C)c1C[C@H](N)C(=O)N1Cc2ccccc2CC1C(=O)NCCCc1nc(O)c(CCCNC(=O)C2Cc3ccccc3CN2C(=O)[C@@H](N)Cc2c(C)cc(O)cc2C)nc1C (some centres not stated)"
assigned_category = "Not met"

